test: Inhibition of LMNA-TRKA G595R (unknown origin) expressed in mouse Ba/F3 cells assessed as antiproliferative activity incubated for 72 hrs by CellTiter-Glo luciferase-based ATP detection assay; format: cell-based; conditions: BaF3, 72 h
MEASURED METRIC: IC50 (pM)
Answer in pM, number only, no unit symbol.

Request: Record request: IC50 value, item `C[C@H]1CNC(=O)c2cnn3ccc(nc23)N[C@H](C)c2cc(F)ccc2O1`
Result: 400

* * *

target: Tyrosine-protein kinase BTK (Homo sapiens, UniProt Q06187); experiment: Inhibition of wild type BTK (unknown origin)
Sequence (Q06187 whole entry): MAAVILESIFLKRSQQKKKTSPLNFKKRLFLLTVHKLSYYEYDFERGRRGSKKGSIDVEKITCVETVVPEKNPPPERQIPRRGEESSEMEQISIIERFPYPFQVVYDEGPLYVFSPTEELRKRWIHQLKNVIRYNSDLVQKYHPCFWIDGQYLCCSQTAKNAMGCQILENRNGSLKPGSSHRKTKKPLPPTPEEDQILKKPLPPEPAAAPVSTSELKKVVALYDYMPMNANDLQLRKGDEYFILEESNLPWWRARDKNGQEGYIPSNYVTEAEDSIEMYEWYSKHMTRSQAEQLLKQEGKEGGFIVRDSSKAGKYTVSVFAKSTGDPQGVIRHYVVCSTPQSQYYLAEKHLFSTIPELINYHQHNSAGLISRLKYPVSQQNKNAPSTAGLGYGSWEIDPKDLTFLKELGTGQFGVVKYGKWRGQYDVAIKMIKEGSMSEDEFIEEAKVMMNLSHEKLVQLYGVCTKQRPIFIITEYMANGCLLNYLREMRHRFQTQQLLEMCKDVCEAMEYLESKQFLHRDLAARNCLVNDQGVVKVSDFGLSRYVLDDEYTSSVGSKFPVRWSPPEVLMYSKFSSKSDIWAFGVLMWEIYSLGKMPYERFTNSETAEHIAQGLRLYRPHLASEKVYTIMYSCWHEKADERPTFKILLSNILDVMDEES
MEASURED METRIC: IC50 (nM)
Answer in nM, number only, no unit symbol.

Request: Record request: IC50 value, item NC(=O)[C@H]1CCN(c2ncnc(N)c2F)C[C@@H]1N1CCC[C@@H](Nc2cc(Cl)cc(C(F)(F)F)c2)C1=O [VECABRUTINIB]
Result: 2.9

Value source: ChEMBL document CHEMBL4665674
